target: human GlyT1c (Homo sapiens (Human)); test: [3H]-Glycine uptake into recombinant CHO cells expressing human GlyT1; type: cell-based; settings: hGlyT1c_5_CHO cells, 200 nM [3H]-glycine
Sequence (P48067 whole entry): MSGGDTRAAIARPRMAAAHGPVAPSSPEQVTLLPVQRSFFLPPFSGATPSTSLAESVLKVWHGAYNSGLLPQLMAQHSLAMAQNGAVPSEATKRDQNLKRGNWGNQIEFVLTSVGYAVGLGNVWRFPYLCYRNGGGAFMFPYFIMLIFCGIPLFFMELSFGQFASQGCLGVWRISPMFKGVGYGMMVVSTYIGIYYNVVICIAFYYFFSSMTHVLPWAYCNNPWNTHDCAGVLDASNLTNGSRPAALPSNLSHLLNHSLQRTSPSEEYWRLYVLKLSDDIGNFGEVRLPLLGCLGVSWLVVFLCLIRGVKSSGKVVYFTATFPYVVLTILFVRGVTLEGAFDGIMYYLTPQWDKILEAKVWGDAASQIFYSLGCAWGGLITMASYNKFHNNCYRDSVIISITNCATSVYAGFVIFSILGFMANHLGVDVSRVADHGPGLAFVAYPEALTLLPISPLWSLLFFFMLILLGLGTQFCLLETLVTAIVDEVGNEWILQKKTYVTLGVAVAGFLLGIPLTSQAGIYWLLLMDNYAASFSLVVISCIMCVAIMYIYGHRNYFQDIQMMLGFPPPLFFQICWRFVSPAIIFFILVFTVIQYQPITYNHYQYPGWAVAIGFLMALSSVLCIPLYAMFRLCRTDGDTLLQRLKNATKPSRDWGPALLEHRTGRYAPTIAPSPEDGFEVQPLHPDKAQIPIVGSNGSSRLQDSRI
property: IC50

CCOC(=O)NC1CCc2ccc(OCCNS(=O)(=O)c3cc(C)cs3)cc2C1Cc1cccc(Cl)c1 (stereo not shown) : ≥ 100 µM
CCOC(=O)NC1CCc2ccc(OCCNS(C)(=O)=O)cc2C1Cc1ccc(Cl)c(Cl)c1 (stereo not shown) : ≤ 100 µM
NC1CCc2ccc(OCCNS(=O)(=O)c3ccc(Cl)s3)cc2C1Cc1cccc(Cl)c1 (stereo not shown) : ≤ 10 µM

Now look at this entry.
// CCOC(=O)NC1CCc2ccc(OCCNS(=O)(=O)c3ccccc3)cc2C1Cc1ccc(Cl)c(Cl)c1 (stereo not shown) : IC50 value = ≤ 1000 µM
